- Tested on: Hepatotoxicity
- Protocol Details: FDA HLAED, gamma-glutamyl transferase (GGT) increase
- Test Context: human
Recorded Metric: GGT Increase - Number of Reports

Please review the entries below; each comes with its answer.
Compound: CC(=O)NO [ACETOHYDROXAMIC ACID]
Subject Of Test: Hepatotoxicity
GGT Increase - Number of Reports: < 4
//
Compound: c1ccc([C@H]2CN3CCSC3=N2)cc1
Subject Of Test: Hepatotoxicity
GGT Increase - Number of Reports: < 4
//
Compound: Cc1cc2c(s1)Nc1ccccc1N=C2N1CCN(C)CC1
Subject Of Test: Hepatotoxicity
GGT Increase - Number of Reports: >= 4
//
Compound: COc1cc(N)c(Cl)cc1C(=O)NC1CCN(CCCOc2ccc(F)cc2)CC1OC (stereo unspecified) [CISAPRIDE]
Subject Of Test: Hepatotoxicity
GGT Increase - Number of Reports: < 4
//
Compound: Fc1ccc([C@@H]2CCNC[C@H]2COc2ccc3c(c2)OCO3)cc1
Subject Of Test: Hepatotoxicity
GGT Increase - Number of Reports: >= 4
//
Compound: CO/N=C(/C(=O)N[C@@H]1C(=O)N2C(C(=O)OC(C)OC(=O)C(C)(C)OC)=C(COC(N)=O)CS[C@H]12)c1ccco1 (stereo partly specified)
Subject Of Test: Hepatotoxicity
GGT Increase - Number of Reports: < 4
//
Compound: COc1ccc2[nH]c([S+]([O-])Cc3ncc(C)c(OC)c3C)nc2c1 (stereo unspecified)
Subject Of Test: Hepatotoxicity
GGT Increase - Number of Reports: >= 4
//
Compound: COc1ccccc1OCCNCC(O)COc1cccc2[nH]c3ccccc3c12 (stereo unspecified)
Subject Of Test: Hepatotoxicity
GGT Increase - Number of Reports: < 4

[in] Check the records and state GGT Increase - Number of Reports for `CC(=O)OCC(CCn1cnc2cnc(N)nc21)COC(C)=O`
[out] < 4

[in] Check the records and state GGT Increase - Number of Reports for `NC(=O)c1ncn([C@@H]2O[C@H](CO)[C@@H](O)[C@H]2O)n1`
[out] < 4
